# PROCEDURE_SUMMARY: in vitro
# MEASUREMENT_SETUP: African green monkey
Provide the recorded CC50 for the entries that follow.

The molecule NC(=O)c1nc(F)cnc1O [Favipiravir, 6-fluoro-3-hydroxy-2-pyrazinecarboxamide] showed CC50 equal to > 2 mM

The molecule O=c1[nH]cc(F)c(=O)[nH]1 [5-Fluorouracil, 2,4-dihydroxy-5-fluoropyrimidine] showed CC50 equal to 0.066 mM

The molecule "NC(=O)c1ncn([C@@H]2O[C@H](CO)[C@@H](O)[C@H]2O)n1" showed CC50 equal to > 2 mM
